- tested-target: human HSD17B13 (Homo sapiens)
- protocol-description: Substrate screening of steroid and bioactive lipid libraries against purified recombinant HSD17B13 (NADH-linked luciferase assay)
- Type: biochemical
- conditions: Bioactive Lipid Library, 5 μM bioactive lipid, normalized to 50 μM estradiol after subtraction of 5% DMSO
value-kind: HSD17B13 Enzymatic Activity Percent Estradiol Control (%)
API: value field is a number in %; no unit string.

Query: Tell me HSD17B13 Enzymatic Activity Percent Estradiol Control reported for CCCCC[C@H](O)/C=C/[C@@H]1[C@@H](C/C=C\CC(=O)O)[C@@H](O)C[C@@H]1O [2,3-dinor-11β-Prostaglandin F2α]
Result: −1.43

Query: Tell me HSD17B13 Enzymatic Activity Percent Estradiol Control reported for O=C(O)CCCC/C=C\C[C@@H](O)/C=C/C=C/C=C\[C@@H](O)CCCC(=O)O [20-carboxy Leukotriene B4]
Result: 9.28

Query: Tell me HSD17B13 Enzymatic Activity Percent Estradiol Control reported for CC/C=C\CC(O)/C=C/C=C\C/C=C\C/C=C\C/C=C\CCC(=O)O (racemic) [(±)17-HDHA]
Result: 15.29

Query: Tell me HSD17B13 Enzymatic Activity Percent Estradiol Control reported for CC/C=C\C/C=C\C/C=C\CC(O)/C=C/C=C\C/C=C\CCC(=O)O (racemic) [(±)11-HDHA]
Result: 72.31

Query: Tell me HSD17B13 Enzymatic Activity Percent Estradiol Control reported for CCCCC[C@H](O)/C=C/[C@@H]1[C@H]2C/C(=C/CCCC(=O)O)C[C@H]2C[C@H]1O [Carbaprostacyclin]
Result: 7.68

Query: Tell me HSD17B13 Enzymatic Activity Percent Estradiol Control reported for C[C@@H](O)CCC[C@@H](O)/C=C/[C@H]1[C@H](O)CC(=O)[C@@H]1C/C=C\CCCC(=O)O [15(R),19(R)-hydroxy Prostaglandin E2]
Result: 4.97

Query: Tell me HSD17B13 Enzymatic Activity Percent Estradiol Control reported for CCCCC/C=C\C/C=C\C[C@H](O)/C=C/C=C\CCCC(=O)O [9(S)-HETE]
Result: 15.68

---

- tested-target: human HSD17B13 (Homo sapiens)
- protocol-description: Substrate screening of steroid and bioactive lipid libraries against purified recombinant HSD17B13 (NADH-linked luciferase assay)
- Assay type: biochemical
- conditions: Bioactive Lipid Library, 5 μM bioactive lipid (Estradiol Control 50 μM), 500 μM NAD+, 100 ng enzyme, 3 hours at 23° C.
- Description: To understand the functional consequences of premature truncation of the HSD17B13 protein due to rs72613567:TA (the associated variant, rs72613567, is an insertion of an adenine adjacent to the donor splice site of exon six (TA allele)), the enzymatic activity of isoforms A and D was evaluated in vitro using recombinant protein and nicotinamide […] dinucleotide as cofactor. […]
Answer each item with its documented HSD17B13 Enzymatic Activity Relative Light Units.
API: value field is a number in RLU; no unit string.

Query: Tell me HSD17B13 Enzymatic Activity Relative Light Units reported for CC/C=C\CC(O)/C=C/C=C\C/C=C\C/C=C\C/C=C\CCC(=O)O (racemic) [(±)17-HDHA]
Result: 492440

Query: Tell me HSD17B13 Enzymatic Activity Relative Light Units reported for CCCCC[C@H](O)/C=C/[C@@H]1[C@@H](CCCCCCC(=O)O)[C@@H]2C[C@H]1OO2 [Prostaglandin H1]
Result: 145840

Query: Tell me HSD17B13 Enzymatic Activity Relative Light Units reported for CCCCC/C=C\C[C@H](O)/C=C/C=C\C/C=C\CCCC(=O)O (racemic) [(±)12-HETE]
Result: 1324640

Query: Tell me HSD17B13 Enzymatic Activity Relative Light Units reported for CCCCCC(O)C=CC1OC(=O)CC(O)C1CC=CCCCC(=O)O (stereo not shown) [11-dehydro Thromboxane B2]
Result: 349160

Query: Tell me HSD17B13 Enzymatic Activity Relative Light Units reported for "CCCCC(C)(C)[C@H](O)/C=C/[C@H]1[C@H](O)CC(=O)[C@@H]1C/C=C\CCCC(=O)Oc1ccc(NC(=O)c2ccc(NC(C)=O)cc2)cc1"
Result: 322280

Query: Tell me HSD17B13 Enzymatic Activity Relative Light Units reported for CCCCC[C@H](O)/C=C/[C@H]1[C@H](O)CC(=O)[C@@H]1C/C=C\CCCC(=O)NCCCCCNC(=O)CCCC[C@H]1SC[C@@H]2NC(=O)N[C@@H]21 [Prostaglandin E2-biotin]
Result: 389960

Query: Tell me HSD17B13 Enzymatic Activity Relative Light Units reported for O=C(O)CCC/C=C\C[C@H]1C(=O)C[C@@H](O)[C@@H]1/C=C/[C@@H](O)CCCCCO [20-hydroxy Prostaglandin E2]
Result: 348240

---

- tested-target: human HSD17B13 (Homo sapiens)
- protocol-description: Substrate screening of steroid and bioactive lipid libraries against purified recombinant HSD17B13 (NADH-linked luciferase assay)
- Type: biochemical
- conditions: Bioactive Lipid Library, 5 μM bioactive lipid, normalized to 50 μM estradiol after subtraction of 5% DMSO
- Description: To understand the functional consequences of premature truncation of the HSD17B13 protein due to rs72613567:TA (the associated variant, rs72613567, is an insertion of an adenine adjacent to the donor splice site of exon six (TA allele)), the enzymatic activity of isoforms A and D was evaluated in vitro using recombinant protein and nicotinamide […] dinucleotide as cofactor. […]
Where a name gives a salt, the structure may show the parent alone.
Answer each item with its documented HSD17B13 Enzymatic Activity Percent Estradiol Control.
API: value field is a number in %; no unit string.

Query: Tell me HSD17B13 Enzymatic Activity Percent Estradiol Control reported for "CCCCCC(=O)CC[C@@H]1[C@@H](C/C=C\CCCC(=O)O)[C@@H](O)C[C@@H]1O"
Result: 2.13

Query: Tell me HSD17B13 Enzymatic Activity Percent Estradiol Control reported for O=C(O)CCC/C=C\C[C@@H]1[C@@H](/C=C/[C@@H](O)CCCCCO)[C@H](O)C[C@@H]1O [20-hydroxy Prostaglandin F2α]
Result: 7.56

Query: Tell me HSD17B13 Enzymatic Activity Percent Estradiol Control reported for C[C@@H](O)CCC[C@H](O)/C=C/[C@@H]1[C@@H](C/C=C\CCCC(=O)O)[C@@H](O)C[C@H]1O [19(R)-hydroxy Prostaglandin F2α]
Result: 6.98

Query: Tell me HSD17B13 Enzymatic Activity Percent Estradiol Control reported for CCCCC[C@H](O)/C=C/[C@@H]1[C@@H](CC(=O)CCC(=O)O)[C@@H](O)C[C@H]1O [(sodium salt)]
Result: 4.64

---

Answer each item with its documented HSD17B13 Enzymatic Activity Percent Estradiol Control.
- tested-target: human HSD17B13 (Homo sapiens)
- Sequence (Q7Z5P4 20-300): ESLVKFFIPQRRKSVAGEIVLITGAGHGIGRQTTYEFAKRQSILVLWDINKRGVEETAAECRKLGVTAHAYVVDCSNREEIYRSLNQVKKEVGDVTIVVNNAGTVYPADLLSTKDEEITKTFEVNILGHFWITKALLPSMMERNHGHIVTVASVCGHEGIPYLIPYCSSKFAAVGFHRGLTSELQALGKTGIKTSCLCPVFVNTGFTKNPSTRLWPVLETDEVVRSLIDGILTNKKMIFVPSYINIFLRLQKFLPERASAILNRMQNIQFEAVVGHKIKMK
- protocol-description: Substrate screening of steroid and bioactive lipid libraries against purified recombinant HSD17B13 (NADH-linked luciferase assay)
- Format: biochemical
- conditions: Bioactive Lipid Library, 5 μM bioactive lipid, normalized to 50 μM estradiol after subtraction of 5% DMSO
API: value field is a number in %; no unit string.

Query: Tell me HSD17B13 Enzymatic Activity Percent Estradiol Control reported for CCC(O)C(O)C/C=C\C/C=C\C/C=C\C/C=C\C/C=C\CCC(=O)O (racemic) [(±)19(20)-DiHDPA]
Result: 37.95

Query: Tell me HSD17B13 Enzymatic Activity Percent Estradiol Control reported for C[C@@H](O)CCC[C@H](O)/C=C/[C@@H]1[C@@H](CCCCCCC(=O)O)[C@@H](O)C[C@H]1O [19(R)-hydroxy Prostaglandin F1α]
Result: −5.97

Query: Tell me HSD17B13 Enzymatic Activity Percent Estradiol Control reported for "CC/C=C\C[C@H](O)/C=C/[C@H]1[C@H](O)CC(=O)[C@@H]1C/C=C\CCCC(=O)O"
Result: 7.66

Query: Tell me HSD17B13 Enzymatic Activity Percent Estradiol Control reported for CCCCC[C@H](O)/C=C/[C@H]1[C@H](O)CC(=O)[C@@H]1C/C=C\CCCC(=O)Oc1ccc(NC(=O)c2ccccc2)cc1 [Prostaglandin E2 p-benzamidophenyl ester]
Result: 9.58

Query: Tell me HSD17B13 Enzymatic Activity Percent Estradiol Control reported for CC[C@H]1O[C@H]1C/C=C\C/C=C\C/C=C\C/C=C\C/C=C\CCC(=O)O (racemic) [(±)19(20)-EpDPA]
Result: 1.38

Query: Tell me HSD17B13 Enzymatic Activity Percent Estradiol Control reported for CC/C=C\C[C@H]1O[C@H]1C/C=C\C/C=C\C/C=C\C/C=C\CCC(=O)O (racemic) [(±)16(17)-EpDPA]
Result: −0.71

Query: Tell me HSD17B13 Enzymatic Activity Percent Estradiol Control reported for CCCCC[C@H]1O[C@H]1C/C=C\C/C=C\C/C=C\CCCC(=O)NCCO [14(15)-EET Ethanolamide]
Result: 7.83
